Known normalized growth of a selection of compounds
Test: chemical genetic growth profiling, strain panel (AID 1159580);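 note: tested at 20 µM; growth read once vehicle control cultures reached saturation at 30 °C; 1 = growth at the plate median or of vehicle wells; lower values mean less growth of the strain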
Conditions: S. cerevisiae deletion strains, growth OD, locus YPL153C, strain RAD53, hits give low values
About 2,000 (36%) of roughly 5,500 compounds were called active. Roughly 18% stayed inconclusive and do not appear here. Some of the results follow.
metric name: normalized growth

# item smiles, metric name, assay value
rows = [
    ("CC(C)(C)c1cc2nc(C(F)(F)F)cc(NNC(=O)c3ccc(Cl)cc3)n2n1", "normalized growth", "1.03 (inactive)"),
    ("CC(C)(C)c1csc(NNC(=O)c2ccc(Cl)cc2)n1", "normalized growth", "0.895 (inactive)"),
    ("Cc1nc(-c2ccc(C(F)(F)F)cn2)[nH]c(=O)c1Cl", "normalized growth", "0.755 (inactive)"),
    ("N#Cc1c(Br)cnn1Cc1cc(C(F)(F)F)cc(C(F)(F)F)c1", "normalized growth", "0.928 (inactive)"),
]
